Please respond with reported pKd for every item in the list.
measured target: T1, Clostridium difficile toxin A (TcdA) (Clostridium difficile, UniProt P16154 1-2710)
T1 construct: mature; also called full-length TcdA
T1 sequence (P16154 whole entry): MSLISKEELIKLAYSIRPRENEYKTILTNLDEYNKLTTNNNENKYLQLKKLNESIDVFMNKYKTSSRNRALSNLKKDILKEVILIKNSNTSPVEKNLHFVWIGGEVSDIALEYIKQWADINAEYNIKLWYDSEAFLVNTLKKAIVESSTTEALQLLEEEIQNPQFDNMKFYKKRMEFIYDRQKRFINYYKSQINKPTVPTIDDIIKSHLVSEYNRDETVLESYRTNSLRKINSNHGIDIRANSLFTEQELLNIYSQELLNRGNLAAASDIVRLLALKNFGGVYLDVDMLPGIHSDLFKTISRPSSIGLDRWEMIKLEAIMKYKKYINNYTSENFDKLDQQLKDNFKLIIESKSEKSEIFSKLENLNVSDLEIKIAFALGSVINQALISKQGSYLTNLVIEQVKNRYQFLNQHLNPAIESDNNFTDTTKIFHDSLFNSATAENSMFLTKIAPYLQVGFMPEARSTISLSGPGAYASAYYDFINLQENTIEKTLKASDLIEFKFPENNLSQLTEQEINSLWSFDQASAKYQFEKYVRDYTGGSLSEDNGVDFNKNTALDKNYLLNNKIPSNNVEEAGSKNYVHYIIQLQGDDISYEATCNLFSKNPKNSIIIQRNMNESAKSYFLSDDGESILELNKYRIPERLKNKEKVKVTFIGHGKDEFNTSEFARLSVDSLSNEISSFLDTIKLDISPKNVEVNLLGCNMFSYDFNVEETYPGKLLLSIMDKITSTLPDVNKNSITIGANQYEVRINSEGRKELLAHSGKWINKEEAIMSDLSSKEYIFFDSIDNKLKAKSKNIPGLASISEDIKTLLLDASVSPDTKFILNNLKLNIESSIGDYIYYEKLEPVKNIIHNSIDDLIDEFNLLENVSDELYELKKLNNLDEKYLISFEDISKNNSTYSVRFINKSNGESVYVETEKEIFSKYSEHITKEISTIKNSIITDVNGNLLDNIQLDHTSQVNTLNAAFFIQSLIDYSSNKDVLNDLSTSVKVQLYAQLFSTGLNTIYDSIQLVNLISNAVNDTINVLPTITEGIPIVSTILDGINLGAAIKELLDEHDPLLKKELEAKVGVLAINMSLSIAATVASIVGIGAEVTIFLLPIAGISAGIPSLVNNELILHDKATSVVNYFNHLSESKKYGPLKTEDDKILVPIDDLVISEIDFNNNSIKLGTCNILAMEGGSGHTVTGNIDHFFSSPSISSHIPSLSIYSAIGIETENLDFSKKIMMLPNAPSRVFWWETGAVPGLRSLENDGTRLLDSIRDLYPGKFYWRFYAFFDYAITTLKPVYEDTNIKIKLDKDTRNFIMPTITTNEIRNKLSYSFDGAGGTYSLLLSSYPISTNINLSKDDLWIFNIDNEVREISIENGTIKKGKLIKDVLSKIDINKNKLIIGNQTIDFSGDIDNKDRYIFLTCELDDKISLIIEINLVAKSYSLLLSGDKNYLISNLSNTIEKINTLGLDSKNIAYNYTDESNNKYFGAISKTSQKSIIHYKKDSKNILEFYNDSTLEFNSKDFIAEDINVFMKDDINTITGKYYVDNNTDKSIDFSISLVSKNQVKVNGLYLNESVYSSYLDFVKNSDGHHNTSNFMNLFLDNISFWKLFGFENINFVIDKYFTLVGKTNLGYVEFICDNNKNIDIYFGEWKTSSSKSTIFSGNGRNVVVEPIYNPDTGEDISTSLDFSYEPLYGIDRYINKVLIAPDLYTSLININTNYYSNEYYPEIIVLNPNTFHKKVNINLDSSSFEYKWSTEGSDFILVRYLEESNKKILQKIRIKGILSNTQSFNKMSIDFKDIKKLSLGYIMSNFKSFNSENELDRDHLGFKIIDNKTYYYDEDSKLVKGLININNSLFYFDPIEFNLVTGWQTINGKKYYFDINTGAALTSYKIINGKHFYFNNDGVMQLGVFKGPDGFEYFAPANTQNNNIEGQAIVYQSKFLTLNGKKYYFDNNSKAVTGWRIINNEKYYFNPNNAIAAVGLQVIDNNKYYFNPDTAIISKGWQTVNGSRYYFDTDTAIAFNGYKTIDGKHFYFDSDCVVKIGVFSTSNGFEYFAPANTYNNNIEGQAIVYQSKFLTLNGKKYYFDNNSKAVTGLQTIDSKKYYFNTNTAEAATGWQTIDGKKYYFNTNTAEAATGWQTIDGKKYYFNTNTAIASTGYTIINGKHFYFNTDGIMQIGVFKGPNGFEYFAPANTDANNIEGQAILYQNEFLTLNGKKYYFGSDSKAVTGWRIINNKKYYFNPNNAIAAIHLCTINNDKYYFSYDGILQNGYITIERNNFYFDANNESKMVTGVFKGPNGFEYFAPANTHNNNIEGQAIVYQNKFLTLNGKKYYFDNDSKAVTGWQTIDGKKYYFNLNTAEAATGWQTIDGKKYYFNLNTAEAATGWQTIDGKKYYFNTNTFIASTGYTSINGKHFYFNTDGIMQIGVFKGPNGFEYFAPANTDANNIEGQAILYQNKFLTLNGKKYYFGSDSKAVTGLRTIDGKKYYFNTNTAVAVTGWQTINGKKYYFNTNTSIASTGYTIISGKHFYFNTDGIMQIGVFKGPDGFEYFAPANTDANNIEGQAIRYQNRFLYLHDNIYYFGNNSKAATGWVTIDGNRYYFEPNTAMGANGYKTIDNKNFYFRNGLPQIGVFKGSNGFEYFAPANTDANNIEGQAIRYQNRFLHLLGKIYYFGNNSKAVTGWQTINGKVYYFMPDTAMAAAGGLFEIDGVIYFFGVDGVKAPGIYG
experiment: SPR (Biacore 3000), VHH over immobilized TcdA, steady-state analysis
Answers are plain numbers, as −log10 of the molar value.

The cases that follow already have their pKd on record.
{"binder": "A26.8 VHH mutant Q106W (VHH, not shown: small tags and cut ends) VHH: QVKLEESGGGLVQAGGSLRLSCAASERTFSRYPVAWFRQAPGAEREFVAVISSTGTSTYYADSVKGRFTISRDNAKVTVYLQMNNLKREDTAVYFCAVNSQRTRLWDPNEYDYWGQGTQVTVSS", "readout value": 5.83}
{"binder": "A26.8 VHH mutant Q106L (VHH, not shown: small tags and cut ends) VHH: QVKLEESGGGLVQAGGSLRLSCAASERTFSRYPVAWFRQAPGAEREFVAVISSTGTSTYYADSVKGRFTISRDNAKVTVYLQMNNLKREDTAVYFCAVNSQRTRLLDPNEYDYWGQGTQVTVSS", "readout value": 6.21}
{"binder": "A26.8 VHH mutant S53R (VHH, not shown: small tags and cut ends) VHH: QVKLEESGGGLVQAGGSLRLSCAASERTFSRYPVAWFRQAPGAEREFVAVISRTGTSTYYADSVKGRFTISRDNAKVTVYLQMNNLKREDTAVYFCAVNSQRTRLQDPNEYDYWGQGTQVTVSS", "readout value": 6.65}
{"binder": "A26.8 VHH mutant Q106Y (VHH, not shown: small tags and cut ends) VHH: QVKLEESGGGLVQAGGSLRLSCAASERTFSRYPVAWFRQAPGAEREFVAVISSTGTSTYYADSVKGRFTISRDNAKVTVYLQMNNLKREDTAVYFCAVNSQRTRLYDPNEYDYWGQGTQVTVSS", "readout value": 5.64}

Please look at the following binder next.
Ask: Entry A26.8 VHH mutant Q106F (VHH, not shown: small tags and cut ends) VHH: QVKLEESGGGLVQAGGSLRLSCAASERTFSRYPVAWFRQAPGAEREFVAVISSTGTSTYYADSVKGRFTISRDNAKVTVYLQMNNLKREDTAVYFCAVNSQRTRLFDPNEYDYWGQGTQVTVSS : reported pKd = ?
Reply: 5.29

Values from patent US20210171613A1
